The origin of these recorded values is PubChem BioAssay AID540295.

biological target: Melanocortin receptor 4 (Homo sapiens) (UniProt P32245); assay: MC4R antagonists of cAMP signaling, primary screen, cell-based, TR-FRET, antagonist arm of biased-ligand search (AID 540295); details: MC4R-expressing cells, MTII-stimulated cAMP, LANCE TR-FRET; at 6.5 µM; hits give high values;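 further: 0% = Melanotan II alone and 100% = Melanotan II plus saturating MCL0020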
Sequence (P32245 whole entry, looked up): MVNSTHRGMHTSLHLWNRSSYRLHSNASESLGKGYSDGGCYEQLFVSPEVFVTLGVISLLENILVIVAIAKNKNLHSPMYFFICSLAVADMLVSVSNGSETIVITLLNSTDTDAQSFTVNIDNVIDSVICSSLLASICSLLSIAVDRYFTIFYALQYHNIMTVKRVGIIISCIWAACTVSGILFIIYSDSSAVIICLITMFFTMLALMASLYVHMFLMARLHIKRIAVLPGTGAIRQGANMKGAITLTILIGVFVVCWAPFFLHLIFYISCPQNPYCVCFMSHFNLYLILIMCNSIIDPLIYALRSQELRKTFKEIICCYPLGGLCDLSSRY
Hit rate of the full screen: of about 360,000 compounds, about 1,700 (0.47%) were called active. Only a selection was taken, and actives are over-represented in it overall.
parameter: inhibition (%)
Give bare numbers, in %.

So, c1ccc(CCNC2CCCCCC2)cc1 ? Its inhibition was 17.4

So, CC(=O)c1c(O)n(C2CCCCCC2)c(=O)[nH]c1=O ? Its inhibition was 2.26

Could I get inhibition for every one of these entries?
1. O=C(NC(=S)N1C[C@H]2C[C@H](C1)c1cccc(=O)n1C2)c1ccc(F)cc1
2. CC(C)c1c(CN(C)C(C)Cc2ccccc2)n(C)n(-c2ccccc2)c1=O (stereo not given)
3. CCN1CCN(c2ccc([N+](=O)[O-])cc2C#N)CC1

7.13
10.7
-10.7
